tested on: KM12 colon; experiment: NCI-60 one-dose screen, 48 h (100 = growth as untreated, 0 = no growth, -100 = all killed); conditions: 10 µM unless noted
Compounds without any hit were thinned out: in the full panel of roughly 83,000, 20% have a hit. Active and inactive are the calls of the source. Rule for the calls: active = growth percent below 10; inactive = the rest.
Provide the recorded growth for the entries that follow.

# molecule, value-kind, recorded-value
records = [
    ("CC(/C=C1\\SC(=S)N(CC(=O)NC(Cc2c[nH]c3ccccc23)C(=O)O)C1=O)=C\\c1ccccc1 (stereo not given)", "growth", "107% (inactive)"),
    ("CNC(=O)c1cc(Oc2ccc3nc(NC(=O)Nc4ccc(Cl)c(Cl)c4)sc3c2)ccn1", "growth", "56.8% (inactive)"),
    ("COC(=O)c1nc(-c2ccccc2)oc1S(=O)(=O)N1CCC(C(N)=O)CC1", "growth", "87.8% (inactive)"),
    ("O=C(NCc1ccc2c(c1)OCO2)NCC1CCCC(CNC(=O)NCc2ccc3c(c2)OCO3)C1 (stereo not given)", "growth", "105% (inactive)"),
    ("CC1(C)O[C@H]2OC3CCC(=O)CC3(O)[C@H]2O1 (stereo not given in full)", "growth", "102% (inactive)"),
]

Please state, for each entry, its recorded growth.
1. C/C(C=O)=C\c1ccc2c(c1)OCO2
2. CC1(C)CC[C@]2(C(=O)O)CC[C@]3(C)C(=CC[C@@H]4[C@@]5(C)C[C@@H](Cc6cn([C@@H]7O[C@H](CO)[C@@H](O)[C@H](O)[C@H]7O)nn6)[C@H](O)C(C)(C)[C@@H]5CC[C@]43C)[C@@H]2C1
3. CC(C)CN1CC(C(=O)Nc2ccc3c(c2)-c2ccccc2C3)CC1=O (stereo not given)
4. N#Cc1c(-c2ccccc2)c(C#N)c2c(C#N)c(N)nn2c1N
5. CCCCCCOC(=O)CC1=C(C)/C(=C/c2[nH]c(-c3ccc[nH]3)cc2OC)N=C1C
6. O=C(/C=C/C12c3ccccc3C(c3ccccc31)C1C(=O)NC(=O)C12)c1ccccn1 (stereo not given)
7. C#CCOc1cccc(-c2ncc3cc(NC(=O)CCl)ccc3n2)c1

Response:
1. 110% (inactive)
2. 104% (inactive)
3. 74% [50 µM] (inactive)
4. 24.4% (inactive)
5. -51.4% (active)
6. 1.06% (active)
7. 14.2% (inactive)

Please state, for each entry, its recorded growth.
1. N=C(N)SCc1cccc2c(CSC(=N)N)cccc12
2. NC(=O)c1c(NC(=O)c2ccc(Cl)cc2)sc2c1CCC(=O)C2
3. O=C(/C=C/c1ccccc1)Nc1ncc(Cc2ccccc2)s1
4. COc1ccc2nc3ccccc3c(NCc3ccccc3)c2c1

Response:
1. 94.5% (inactive)
2. 42.1% (inactive)
3. 6.06% (active)
4. 36.5% (inactive)

Please state, for each entry, its recorded growth.
1. Cc1cc2oc(=O)cc(CP(=O)(O)O)c2cc1O
2. COc1ccc(-c2nnc(SCC(=O)Nc3ccc(/C(C)=N\O)cc3)n2-c2ccccc2)cc1OC
3. COC(c1ccc2ccccc2c1)C(C)C(F)F (stereo not given)

Response:
102% (inactive)
106% (inactive)
107% (inactive)

Request: Which value of growth has been reported for `CC[C@]12C=CCN3CC[C@@]4(c5ccc(OC)cc5N(C)[C@H]4[C@@](O)(C(=O)OC)[C@@H]1OC(=O)CCCN1CCOCC1)[C@@H]32` in the records?
Response: 107% (inactive)
